target: pooled human IgG
propertyMeasured: Enzyme Activity Endpoint Assay (purified): scIgG

protein: PRT-80 (protein) MANQEIRYSEVTPKHITSVWTKGVTPPTQFIQGEDVFHAPYKANQGWYDITKTFNGKDDLLCGAATAGNMLHWWFDQNKEEIEAYLKKHPEKQKIMFGDQELLDVRKAINTKDDQTNSELFNYFRDKAFPNLSARRLGVMPDHVLDMFINGYYLNVNKTQTTDVNRTYQEKDPRGGIFDAVFTRGDQSKLLTSRHDFKEKTLKEISDLIKQELTEGKALGLSHTYANVRINHVINLWGADFDSNGNLKAIYVTDSDSDASIGMKKYFVGVNSAGKVAISAKEIKGDNIGAQVLGLFTLSTGQDIWNQTN
result: 34 ng/µL

protein: PRT-572 (protein) MANQEIRYSEATPSHITSVWTKGVTPPTQFIQNEDVLHAPYIANQGWYDITKTFNGKDDLLCGAATAGNMLHWWFDQNKEQIENYLKKHPEKQKINFNGEQMFDVKEAIDTKDSQTDSALFSYFKDKAFPYLSTKHLGVFPDHVIDMFINGYRLSLTNHGPTPVKEQTKDPRGGIFDAVFTRGDQSKLLTSRHDFKEKTLNEISQLIKQELTEGKALGLSHTYANVRINHVINLWGADFNAEGNLEAIYVTDSDSNASIGMKKYYVGVNSAGKVAISAKEIEGDNIGAQVLGLFTLSTGQDIWQQTNLEHHHHHH
result: 0 ng/µL

protein: PRT-55 (protein) MANQEIRYSEVTPYHVTSVWTKGVTPPANFTQGEDVFHAPYVANQGWYDITKTFNGKDDLLCGAATAGNMLHWWFDQNKDQIDRYLEEHPEKAKINFNGEQMFDVKEAIDTKNHQLDSKLFEYFKEKAFPYLSTKHLGVFPDLVIDMFINGYRLSLTNHGPTPVKEGSKDPRGGFFDAVFGRGDQSKLLTSRHDFKEKNLKEISDLIKKELTEGKALGLSHTYANVRINHVINLWGADFDSNGNLKAIYVTDSDSNASIGMKKYFVGVNSAGKVAISAKEIKEDNIGAQVLGLFTLSTGQDSWNQTN
result: 57 ng/µL

protein: PRT-266 (protein) MVTSVWTKGVTPPTDFIYGEDVLHAPYKAGQGWYDITKTFNGKDDLLCGAATAGNMLHWWFDQNKEQIENYLKKHPEKQKINFNGEQMFDVKEAIDTKDSQLDSKLFEYFKEKAFPNLSTKHLGVFPDHVIDMFINGYRLSLLNHGPTPVKRGSKDPRGGIFDAVFTRGDQSKLLTNRHDLKNKTLKEISDLIKQELTEGKALGISHTYANVRINHVINLWGADFDAEGNLEAIYVTDSDSNASIGMKKYFVGVNSSGKVAISAKEIEEDNIGAQVLGLFTLSTGQDIWNQTN
result: 0 ng/µL
